Test system: NCI-H23 lung
TEST_NAME: NCI tumour cell line growth inhibition, 48 h

MOLECULE	TARGET_OF_ASSAY	UNIT_ABBREVIATION	VALUE_COMPARATOR	TGI
COc1cc2c3c(n(CCCN)c(=O)c2cc1OC)-c1ccc(N)cc1C3=O	NCI-H23 lung	µM	=	9.75
COc1cc(CCN)c(OC)c(OC)c1	NCI-H23 lung	µM	>	100
COC(=O)c1c(C)cccc1C1CN=NC12Cc1cc(C)c(C)cc1C2=O (stereo unspecified)	NCI-H23 lung	µM	>	100
O=C(O)c1ccccc1/C=C1\Cc2cc3c(cc2C1=O)CCC3	NCI-H23 lung	µM	=	58.8
O=C(/C=C/c1ccccc1)CCN1CCCCC1	NCI-H23 lung	µM	=	89.8
O=C(CC1(O)C(=O)Nc2c(Cl)cc(Cl)cc21)c1cccc([N+](=O)[O-])c1 (stereo unspecified)	NCI-H23 lung	µM	=	52.3
